Some compounds, each annotated with its measured TGI.
# System: ACHN renal
# procedure text: NCI tumour cell line growth inhibition, 48 h
measurement type: TGI

1) COc1ccc(N2C(=O)C3c4[nH]c5ccc(F)cc5c4C4CCC(C(C)(C)C)CC4C3C2=O)cc1 (stereo not given) | > 10 µM
2) Oc1[nH]c2ccccc2c1N=Nc1c(F)c(F)c(F)c(F)c1F | 36.8 µM
3) COc1ccc(C(=O)N/N=C/c2c(C)n(C)n(-c3ccccc3)c2=O)cc1 | > 100 µM
4) O=S(=O)(/N=C(\NO)Nc1ccc(Cl)cc1)c1ccccc1 | 36.3 µM
5) O=C(Nc1nnc(-c2c(Cl)c(Cl)c(Cl)c(Cl)c2-c2nc3cc(C(=O)c4ccccc4)ccc3[nH]2)o1)c1ccc(Cl)cc1 | > 100 µM
6) O=C(NNS(=O)(=O)c1ccccc1)c1cccnc1 | > 100 µM
7) Cn1c(=S)c2[nH]c(SCCN3C(=O)c4ccccc4C3=O)nc2n(C)c1=O | > 100 µM
8) CCOC(=O)c1ccc2c(c1)[n+](=O)c(C(C)=O)c(C(F)(F)F)n2[O-] | 3.01 µM
9) NC(=Nc1ccc(N)cc1)C(N)=Nc1ccc(N)cc1 | > 100 µM
10) COC(=O)/C=c1\s/c(=C\C(=O)OC)c2ccccc12 | > 100 µM

----------
# Test system: TK-10 renal
# procedure text: NCI tumour cell line growth inhibition, 48 h
Some compounds, each annotated with its measured TGI.
measurement type: TGI

1) CC[P+]1(c2ccccc2)[C@@H](C)CC[C@@H]1C | > 100 µM
2) CC(C)(C)OC(=O)Cn1ncn(NC(=O)Cc2ccccc2)c1=O | > 10 µM
3) Cc1nc2[nH]ncn2c(=O)c1CCO | > 10 µM
4) CN(C)c1ccc(C(c2ccc(Cl)cc2)c2ccc(N(C)C)cc2)cc1 | > 100 µM
5) CC1(C)OC[C@@H](O)[C@H](Br)CO1 | > 100 µM
6) COc1ccc(-n2c(=O)n(-c3ccccc3)c(=O)n2-c2ccc(OC)cc2)cc1 | > 100 µM
7) O=S(=O)(O)c1ccc2c(N=Nc3ccc(Cl)cc3)c(O)ccc2c1 | > 100 µM
8) O=C(Nc1sccc1S(=O)(=O)c1ccccc1)c1ccccc1 | > 100 µM
9) CSc1c(CC(=O)Nc2ccc(Cl)cc2)n(Cc2ccccc2)c2ccccc12 | 57.4 µM
10) CC1NC(=O)C2=C1C(N)=NC(=O)C2 (stereo unspecified) | > 100 µM
11) COc1ccc(N2C(=O)C3c4[nH]c5ccc(F)cc5c4C4CCC(C(C)(C)C)CC4C3C2=O)cc1 (stereo unspecified) | > 10 µM

----------
# System: EKVX NSCLC
# procedure text: NCI tumour cell line growth inhibition, 48 h
Some compounds, each annotated with its measured TGI.
measurement type: TGI (µM)

1. COc1ccc(C(CC(=O)c2ccccc2)C(C(=O)c2ccccc2)C(c2ccc(OC)cc2)C2C(=O)NC(=S)NC2=O)cc1 (stereo not given) | 57.2
2. O=[N+]([O-])/C(C(Cl)=C(Cl)Cl)=C(\N1CCCCC1)n1nnc2ccccc21 | 26.4

----------
# System: NCI/ADR-RES ovarian
# procedure text: NCI tumour cell line growth inhibition, 48 h
Some molecules, each annotated with its measured GI50.
measurement type: GI50

1) COc1cc(C2C3=C(COC3=O)N(CCO)c3cc4c(cc32)OCO4)cc(OC)c1O (stereo not given) | 11.3 µM
2) CC(=O)OCCOCN1C(=O)NC(=O)/C(=C/c2cccc(OCc3ccccc3)c2)C1=O | 19.9 µg/mL
3) N#Cc1c(N)nc(NCc2ccccc2)c(C#N)c1-c1ccc(Cl)cc1Cl | > 68.1 µM
4) O=C(c1ccccc1)n1c(-c2ccccc2)cs/c1=N\S(=O)(=O)c1ccc(N2N=C3c4ccccc4CC3C2c2cccs2)cc1 (stereo not given) | > 100 µM
5) O=C(Nc1ccccc1O)c1ccc(NS(=O)(=O)c2cccc3cccnc23)cc1 | 0.788 µM

----------
# System: U251 CNS
# procedure text: NCI tumour cell line growth inhibition, 48 h
measurement type: TGI (µM)

1. Cc1c(C(N)=O)sc2c1c(=O)n(Cc1ccccc1)c1nnc(-c3ccc(Br)cc3)n21 | 13
2. COc1ccc(C2C=C(c3ccc(Cl)cc3)N=C3SC=C(C)N32)c(Br)c1 (stereo not given) | 13.1
3. COc1cccc(/C(C)=N/NC(=O)CSc2nc3ccccc3c(=O)n2CCc2ccc(S(N)(=O)=O)cc2)c1 | 3.67
4. CCN(CC)CCCNc1[nH]ncc2c(C)c3nc4ccc(OC)cc4c3cc12 | 1.77

----------
# Test system: SK-MEL-5 melanoma
# procedure text: NCI tumour cell line growth inhibition, 48 h
measurement type: GI50

1. COc1ccc(C2C=C(c3ccc(Cl)cc3)N=C3SC=C(C)N32)c(Br)c1 (stereo not given) | 2.8 µM
2. Cc1c(C(N)=O)sc2c1c(=O)n(Cc1ccccc1)c1nnc(-c3ccc(Br)cc3)n21 | 1.47 µM
3. NC(=S)N=Nc1c(O)c2ccccc2c2ccccc12 | 1.41 µM
4. O=c1oc2ccc(-c3ccc(F)cc3F)cc2c(=O)n1-c1ccc(Cl)c(C(F)(F)F)c1 | 1.6 µM
5. O=C(Nc1cc(Oc2cc(F)c(NC(=O)C3(C(=O)Nc4ccc(F)cc4)CC3)cc2F)ccn1)C1CC1 | 1.52 µM

----------
# System: MOLT-4 leukemia
# procedure text: NCI tumour cell line growth inhibition, 48 h
measurement type: TGI

1) COC1CCC(=O)N1CN(C(C)=O)c1ccc(C)cc1 (stereo not drawn) | > 100 µM
2) O=C(N/N=C/c1cc(Cl)cc(Cl)c1[O-])c1ccccc1.O=C(N/N=C/c1cc(Cl)cc(Cl)c1[O-])c1ccccc1.[Co+2] | 21.4 µM
3) COc1cc(C2C3=C(COC3=O)N(CCO)c3cc4c(cc32)OCO4)cc(OC)c1O (stereo not drawn) | > 24.9 µM
4) COC(=O)[C@@H]1CC(C(CN)c2cn(C(=O)OC(C)(C)C)c3ccccc23)C(=O)N1C(=O)OC(C)(C)C (stereo partly drawn) | 37.6 µM
5) CC1(C)CCCCCC(C)(CCCO)C1=O (stereo not drawn) | > 100 µM
6) COc1ccc(N(/C=C/C(=O)C(F)(F)F)CC(=O)c2ccc(Cl)cc2)cc1 | 55.5 µM
7) CC(C)(C)OC(=O)c1cccnc1/C=N/O | > 100 µM
8) COC(=O)/C=c1\s/c(=C\C(=O)OC)c2ccccc12 | > 100 µM
9) CCOC(=O)Cc1cnc(NC(NC(=O)CC)(C(F)(F)F)C(F)(F)F)s1 | > 100 µM
10) N#CCN(CC#N)C1CC=CCC1N(CC#N)CC#N (stereo not drawn) | > 100 µM
11) O=c1[nH]c(=O)n(C2OC(CO)C(O)C2O)cc1OCC(F)(F)F (stereo not drawn) | > 100 µM
12) O=C(c1ccccc1)n1c(-c2ccccc2)cs/c1=N\S(=O)(=O)c1ccc(N2N=C3c4ccccc4CC3C2c2cccs2)cc1 (stereo not drawn) | 21.2 µM
13) Clc1ccccc1C(Nc1ncccn1)Nc1ncccn1 | > 100 µM
14) CC1NC(=O)C2=C1C(N)=NC(=O)C2 (stereo not drawn) | > 100 µM
15) N#Cc1ccc2cc3c(cc2c1)OCO3 | > 100 µM
16) O=C(Nc1cc(Oc2cc(F)c(NC(=O)C3(C(=O)Nc4ccc(F)cc4)CC3)cc2F)ccn1)C1CC1 | 7.1 µM
17) O=C1CCCCC/C1=C\c1ccccc1 | > 100 µM
18) COc1cccc2cc(C(C)=O)c(=O)oc12 | > 100 µM
19) Cc1ccc(NCCN(C)C)c2c(=O)c3ccccc3sc12 | 4.33 µM
20) NC(=O)c1c(NC=O)ncn1C1OCC(O)C(O)C1O (stereo not drawn) | > 100 µM
21) CCOC(=O)C1([Se]c2ccccc2)CCCC1=O (stereo not drawn) | 57.1 µM
22) COc1ccc(N2C(=O)C3c4[nH]c5ccc(F)cc5c4C4CCC(C(C)(C)C)CC4C3C2=O)cc1 (stereo not drawn) | > 10 µM
23) C(=Nc1ccc(-c2nc3ccccc3[nH]2)cc1)c1ccco1 | > 100 µM
24) COc1ccc(Nc2nc3cc(N)cc(N)c3nc2-c2ccccc2)cc1OC | > 100 µM
25) ClCc1cccc(CSc2ncnc3c2ncn3Cc2cccc(CCl)c2)c1 | 17.2 µM
26) CC(C)(C)C1=CC(=C2C=Cc3ccccc3O2)C=C(C(C)(C)C)C1=O | > 21.3 µM
27) C=C(C)C(=O)O[C@@H]1C/C(C)=C\[C@H](OC(C)=O)C[C@](C)(O)/C=C2/OC(=O)C(COC(C)=O)=C21 | 2.32 µM
28) COc1cc2ccc1OCc1cccc(n1)COc1ccc(cc1OC)C=NCCNCCNCCN=C2 | > 100 µM
29) C#CC1(O)CCC2[C@@H]3CCc4cc(Oc5nc(F)nc(-c6c7ccccc7cn6C)n5)ccc4C3CC[C@@]21C (stereo partly drawn) | > 100 µM
30) COc1cc(NC=C2C(=O)OC(C)(C)OC2=O)c(OC)c(C)c1OC | > 100 µM
31) CCOC(=O)c1c(N2CCCC2)ncn(C)c1=S | > 100 µM
32) COc1cc2c(cc1C1=NC(C)(C)CO1)OCO2 | > 100 µM
33) Cc1ccc(C)c(NC(=O)CC2SC(=Nc3ccccc3Cl)NC2=O)c1 (stereo not drawn) | > 100 µM
34) CC1CN=C(c2cccc(-c3nc(-c4cccc(C5=NCC(C)N5)c4)nc(N(C)C)n3)c2)N1 (stereo not drawn) | 2.7 µM
35) Cc1ccc(NC(=O)/C(=N/N(C)C)C(C2OC(=O)c3ccccc32)[N+](=O)[O-])cc1 (stereo not drawn) | > 100 µM
36) N#Cc1c(N)nc(NCc2ccccc2)c(C#N)c1-c1ccc(Cl)cc1Cl | > 100 µM
37) O=[N+]([O-])/C(C(Cl)=C(Cl)Cl)=C(\N1CCCCC1)n1nnc2ccccc21 | 18.3 µM
38) CC12CCC3c4cc(Br)c(O)c(Br)c4CCC3C1CCC2O (stereo not drawn) | 42.2 µM
39) Nc1nc(N)c2cc(Sc3cccc(C(F)(F)F)c3)ccc2n1 | 6.08 µM
40) O=S(=O)(Nc1ccc(F)c(Cl)c1)c1ccc(-c2cnc(C3CC3)o2)cc1 | 88.2 µM
41) O=S(=O)(O)c1ccc2c(N=Nc3ccc(Cl)cc3)c(O)ccc2c1 | > 100 µM
42) Nc1ccc(-c2nc3ccccc3s2)cc1C#Cc1ccccc1 | > 100 µM
43) CC/C=C/C[C@H](O)[C@H]1C[C@H]2O[C@H](CC(=O)OC)C[C@H]2O1 | > 100 µM
